- ASSAYED SYSTEM: SIX1 homeodomain (reference allele) (human, UniProt Q15475 108-198)
- Sequence: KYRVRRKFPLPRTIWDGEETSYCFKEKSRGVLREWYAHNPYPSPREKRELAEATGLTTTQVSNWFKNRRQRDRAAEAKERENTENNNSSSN
- EXPERIMENT: universal protein binding microarray; Universal all-10-mer PBM (8x60K, AMADID 030236), 300 nM GST-tagged protein, Alexa Fluor 488 anti-GST; buffer, salt, pH and temperature not stated (as in Berger); high values mean tight binding
- RUN PARAMETERS: protein: ivt; tags: N-terminal GST; dsDNA, one strand shown
The full ranking holds about 33,000 sequences; the median of “e-score” is about -0.053, and the highest 2% start at about 0.38. Shown is part of a subset that was picked to be rich in the highest values.
MEASURED METRIC: binding signal (E-score)
Report as a plain number; the unit E-score is understood.

Lookup: Lab note: need binding signal for `CTATCCTA` on SIX1 homeodomain (reference allele) (human, UniProt Q15475 108-198), anyone have it?
Found: 0.198

Lookup: Cool, now `GTATTGAA`
Found: 0.213

Lookup: Cool, now `ATATACTG`
Found: 0.299

Lookup: Cool, now `CTATACCC`
Found: 0.369

====

- ASSAYED SYSTEM: SIX1 homeodomain (reference allele) (human, UniProt Q15475 108-198)
- Sequence: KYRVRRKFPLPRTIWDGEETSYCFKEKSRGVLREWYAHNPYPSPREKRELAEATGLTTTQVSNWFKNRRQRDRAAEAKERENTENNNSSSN
- EXPERIMENT: universal protein binding microarray; Universal all-10-mer PBM (8x60K, AMADID 030236), 300 nM GST-tagged protein, Alexa Fluor 488 anti-GST; buffer, salt, pH and temperature not stated (as in Berger); high values mean tight binding
- RUN PARAMETERS: protein: ivt; tags: N-terminal GST; dsDNA, one strand shown
The full ranking holds about 33,000 sequences; the median of “e-score” is about -0.053, and the highest 2% start at about 0.38. The list comes from a sample in which the highest values are over-represented; it also holds close analogues and randomly drawn sequences.
For each of the sequences below, state its binding signal.

Lookup: Lab note: need binding signal for `GCAGGAGA` on SIX1 homeodomain (reference allele) (human, UniProt Q15475 108-198), anyone have it?
Found: 0.153 E-score

Lookup: Cool, now `ATACACCA`
Found: 0.389 E-score

Lookup: Cool, now `GGGATAAA`
Found: 0.212 E-score

Lookup: Cool, now `CGGTGTAG`
Found: 0.297 E-score

Lookup: Cool, now `TAGTGAGA`
Found: 0.203 E-score

Lookup: Cool, now `TCACCTGA`
Found: 0.165 E-score

Lookup: Cool, now `GATCGATC`
Found: 0.362 E-score

Lookup: Cool, now `ATATAACC`
Found: 0.177 E-score

Lookup: Cool, now `CGGATAAG`
Found: 0.187 E-score

Lookup: Cool, now `GTATAAAA`
Found: 0.246 E-score

Lookup: Cool, now `AGACACCC`
Found: 0.335 E-score

Lookup: Cool, now `CGGATACA`
Found: 0.446 E-score

Lookup: Cool, now `ATCCGCTG`
Found: 0.305 E-score

Lookup: Cool, now `CAGAGATA`
Found: 0.27 E-score

Lookup: Cool, now `CGACACCC`
Found: 0.439 E-score

Lookup: Cool, now `ATACGGTA`
Found: 0.405 E-score

Lookup: Cool, now `CTCCGATC`
Found: 0.185 E-score

Lookup: Cool, now `ATATGGCA`
Found: 0.204 E-score

Lookup: Cool, now `CGTATACG`
Found: 0.317 E-score

Lookup: Cool, now `GATCGATA`
Found: 0.408 E-score

Lookup: Cool, now `GTAGGCCA`
Found: 0.17 E-score

Lookup: Cool, now `GATCCCGA`
Found: 0.377 E-score

Lookup: Cool, now `CGGAGATA`
Found: 0.314 E-score

Lookup: Cool, now `AATCGATA`
Found: 0.335 E-score

Lookup: Cool, now `TATCCCGA`
Found: 0.315 E-score

Lookup: Cool, now `GAGCCGGA`
Found: 0.166 E-score

Lookup: Cool, now `GGGATAGA`
Found: 0.256 E-score

Lookup: Cool, now `CTACGATC`
Found: 0.233 E-score

Lookup: Cool, now `CAATACGG`
Found: 0.178 E-score

Lookup: Cool, now `CTCCGATA`
Found: 0.314 E-score

Lookup: Cool, now `CGCCGATA`
Found: 0.376 E-score

Lookup: Cool, now `ATGCGATC`
Found: 0.309 E-score

Lookup: Cool, now `ATCCGCTA`
Found: 0.243 E-score

Lookup: Cool, now `ATATCTTG`
Found: 0.271 E-score

Lookup: Cool, now `CCCTGATC`
Found: 0.33 E-score

Lookup: Cool, now `GATCCCTA`
Found: 0.383 E-score

Lookup: Cool, now `CCGGAGAC`
Found: 0.184 E-score

Lookup: Cool, now `ATGCCAGG`
Found: 0.161 E-score

Lookup: Cool, now `CTACACCC`
Found: 0.263 E-score

Lookup: Cool, now `ATCAAACC`
Found: 0.261 E-score

Lookup: Cool, now `AATCCCTA`
Found: 0.185 E-score

Lookup: Cool, now `ATATCTTC`
Found: 0.365 E-score

Lookup: Cool, now `ATATGCGG`
Found: 0.274 E-score

Lookup: Cool, now `CTGGTCTA`
Found: 0.201 E-score

Lookup: Cool, now `CAACACCA`
Found: 0.282 E-score

Lookup: Cool, now `GATTATCC`
Found: 0.329 E-score

Lookup: Cool, now `AAGTATAC`
Found: 0.338 E-score

Lookup: Cool, now `ATCGCCCC`
Found: 0.253 E-score

Lookup: Cool, now `ATCCGCTC`
Found: 0.377 E-score

Lookup: Cool, now `ATACACCC`
Found: 0.391 E-score

Lookup: Cool, now `ATACACAA`
Found: 0.232 E-score

Lookup: Cool, now `ACGTGATA`
Found: 0.344 E-score

Lookup: Cool, now `GAGTATAC`
Found: 0.262 E-score

Lookup: Cool, now `ATCCCGCC`
Found: 0.27 E-score

Lookup: Cool, now `GAAAGATA`
Found: 0.324 E-score

Lookup: Cool, now `ATCAGGCG`
Found: 0.25 E-score

====

- ASSAYED SYSTEM: SIX1 homeodomain (reference allele) (human, UniProt Q15475 108-198)
- Sequence: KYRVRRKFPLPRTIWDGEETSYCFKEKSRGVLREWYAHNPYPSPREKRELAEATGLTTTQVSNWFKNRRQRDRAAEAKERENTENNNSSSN
- EXPERIMENT: universal protein binding microarray; Universal all-10-mer PBM (8x60K, AMADID 030236), 300 nM GST-tagged protein, Alexa Fluor 488 anti-GST; buffer, salt, pH and temperature not stated (as in Berger); high values mean tight binding
- RUN PARAMETERS: protein: ivt; tags: N-terminal GST; dsDNA, one strand shown
In all, about 33,000 sequences were measured (“e-score”: median about -0.053, highest 2% from about 0.38 on). This excerpt belongs to a sample that is enriched for the highest values.
MEASURED METRIC: binding signal
Answer by giving the amount and then stating its unit.

Lookup: Using the record for `ATGTGATC` , report its binding signal.
Found: 0.32 E-score

Lookup: Cool, now `GCATATTA`
Found: 0.249 E-score

Lookup: Cool, now `GGATTAGA`
Found: 0.165 E-score

Lookup: Cool, now `ATATATTG`
Found: 0.238 E-score

Lookup: Cool, now `GGGATACC`
Found: 0.455 E-score

Lookup: Cool, now `CATCATAC`
Found: 0.151 E-score

Lookup: Cool, now `GTGTGTGA`
Found: 0.174 E-score

Lookup: Cool, now `ATCCTCTC`
Found: 0.264 E-score

Lookup: Cool, now `GAATCCCC`
Found: 0.23 E-score

Lookup: Cool, now `CACACCGG`
Found: 0.224 E-score

Lookup: Cool, now `AGGGGTAC`
Found: 0.178 E-score

Lookup: Cool, now `AGGATACC`
Found: 0.457 E-score

Lookup: Cool, now `GATCACCC`
Found: 0.407 E-score

Lookup: Cool, now `CTATTATC`
Found: 0.189 E-score

Lookup: Cool, now `ATGTGAGA`
Found: 0.165 E-score

Lookup: Cool, now `AAGGGTGA`
Found: 0.21 E-score

Lookup: Cool, now `ATCCTCAC`
Found: 0.234 E-score

Lookup: Cool, now `CGATCCCC`
Found: 0.437 E-score

Lookup: Cool, now `AAGGATCG`
Found: 0.349 E-score

Lookup: Cool, now `AGCAATAC`
Found: 0.298 E-score

Lookup: Cool, now `ACACCAAC`
Found: 0.224 E-score

Lookup: Cool, now `TAGGATAA`
Found: 0.21 E-score

Lookup: Cool, now `TAAGATCA`
Found: 0.293 E-score

Lookup: Cool, now `AGGATCTC`
Found: 0.292 E-score

Lookup: Cool, now `CAATAATA`
Found: 0.223 E-score

Lookup: Cool, now `AACCATAT`
Found: 0.303 E-score

Lookup: Cool, now `CCGTATCC`
Found: 0.438 E-score

Lookup: Cool, now `GATTAGAA`
Found: 0.184 E-score

Lookup: Cool, now `CTGTGATA`
Found: 0.39 E-score

Lookup: Cool, now `ACGGATGA`
Found: 0.211 E-score

Lookup: Cool, now `AGGATACA`
Found: 0.337 E-score

Lookup: Cool, now `GCATATAA`
Found: 0.175 E-score

Lookup: Cool, now `CGGCTCGA`
Found: 0.15 E-score

Lookup: Cool, now `ACGGGTAT`
Found: 0.435 E-score

Lookup: Cool, now `CATTATCC`
Found: 0.326 E-score

Lookup: Cool, now `AGGGGTAG`
Found: 0.214 E-score

Lookup: Cool, now `CAGGATCG`
Found: 0.297 E-score

Lookup: Cool, now `ATATGGAC`
Found: 0.173 E-score

Lookup: Cool, now `AGGATCCT`
Found: 0.385 E-score
